Reference for the values: patent US20230348426A1

Experimental system: UniProt P21462
Experimental details: FPR1 cyclic adenosine monophosphate (cAMP) assay
Assay type: cell-based
Cond: CHO cells overexpressing human FPR1; forskolin 10 µM; inhibition of cAMP production; read-out: hFPR1 cAMP EC50
compounds and their reported EC50

| Compound | Experimental system | EC50 / nM |
| --- | --- | --- |
| COc1cc(F)c([C@@H]2CN(c3cccn(C4CCOC4)c3=O)C(=O)[C@H]2NC(=O)c2ccc(OC(F)F)cc2)c(F)c1 (stereo partly drawn) [Example 320] | UniProt P21462 | 44 |
| COCCn1cccc(N2C[C@@H](c3ccc(OC)cc3F)[C@H](NC(=O)c3ccc(OC(F)F)cc3)C2=O)c1=O [Example 81] | UniProt P21462 | 2.7 |
| COCCn1ccnc1N1C[C@@H](c2c(F)cc(OC)cc2F)[C@H](NC(=O)c2ccc(Cl)cc2)C1=O [Example 650] | UniProt P21462 | 1700 |
| COc1cc(F)c([C@@H]2CN(c3c(C)ccn(C4COC4)c3=O)C(=O)[C@H]2NC(=O)c2ccc(OC(F)(F)F)cc2)c(F)c1 [Example 463] | UniProt P21462 | 6 |
| COc1cc(F)c([C@@H]2CN(c3c(C)ccn(CC(OC)C(F)(F)F)c3=O)C(=O)[C@H]2NC(=O)c2ccc(OC(F)F)cc2)c(F)c1 (stereo partly drawn) [Example 314] | UniProt P21462 | 0.4 |
| COc1ccnc(N2C(=O)[C@@H](NC(=O)c3ccc(Cl)cc3)[C@H](c3c(F)cc(OC)cc3F)[C@@H]2C)c1 [Example 432] | UniProt P21462 | 3800 |

* * *

molecules and their reported EC50
Experimental system: human FPR2 (Homo sapiens (Human))
Experimental details: FPR2 cyclic adenosine monophosphate (cAMP) assay
Cond: CHO cells overexpressing human FPR2; forskolin 5 µM; inhibition of cAMP production; read-out: hFPR2 cAMP2 EC50
Measured parameter: EC50 (nM)

| Molecule | Measured parameter | Result |
| --- | --- | --- |
| COc1cc(F)c([C@H]2[C@H](NC(=O)c3ccc(OC(F)F)cc3)C(=O)N(c3cccc(C4CCCN(C)C4)n3)[C@H]2C)c(F)c1 (stereo partly shown) [Example 512] | EC50 | 3.7 |
| COc1cc(F)c([C@@H]2CN(c3nccc(OC4CCOC4)c3C(F)(F)F)C(=O)[C@H]2NC(=O)c2ccc(Cl)cc2)c(F)c1 (stereo partly shown) [Example 708] | EC50 | 11 |
| CCN1CCC(N2C[C@@H](c3c(F)cc(OC)cc3F)[C@H](NC(=O)c3ccc(OC(F)F)cc3)C2=O)C1=O (stereo partly shown) | EC50 | 4.8 |
| COc1cc(C2CCOCC2)nc(N2C(=O)[C@@H](NC(=O)c3ccc(OC(F)F)cc3)[C@H](c3c(F)cc(OC)cc3F)[C@H]2C)c1 | EC50 | 6.8 |
| COCC(CO)n1cccc(N2C[C@@H](c3ccc(OC)cc3)[C@H](NC(=O)c3ccc(OC(F)(F)F)cc3)C2=O)c1=O (stereo partly shown) | EC50 | 3.5 |
| COc1cc(F)c([C@@H]2CN(c3c(C)ccn(CC(=O)N4CCOCC4)c3=O)C(=O)[C@H]2NC(=O)c2ccc(Cl)cc2)c(F)c1 | EC50 | 2.6 |
| COc1cc(F)c([C@@H]2CN(c3c(C)ccn(C4CCS(=O)(=O)CC4)c3=O)C(=O)[C@H]2NC(=O)c2ccc(OC(F)(F)F)cc2)c(F)c1 | EC50 | 8.6 |
| COc1cc(F)c([C@@H]2CN(c3ccccc3P(C)(C)=O)C(=O)[C@H]2NC(=O)c2ccc(OC(F)(F)F)cc2)c(F)c1 | EC50 | 24 |
| COc1cc(F)c([C@@H]2CN(c3nccc(N4CCN5CCCC5C4)c3C(F)(F)F)C(=O)[C@H]2NC(=O)c2ccc(Cl)cc2)c(F)c1 (stereo partly shown) | EC50 | 1.2 |
| CCn1cccc(N2C(=O)[C@@H](NC(=O)c3ccc(OC(F)(F)F)cc3)[C@H](c3c(F)cc(OC)cc3F)[C@H]2C)c1=O | EC50 | 6.7 |
| COc1cc(F)c([C@@H]2CN(c3nccc(NCCS(C)(=O)=O)c3C(F)(F)F)C(=O)[C@H]2NC(=O)c2ccc(Cl)cc2)c(F)c1 | EC50 | 2 |
| COc1cc(F)c([C@@H]2CN(c3c(C)ccn(CCO)c3=O)C(=O)[C@H]2NC(=O)c2ccc(OC(F)(F)F)cc2)c(F)c1 | EC50 | 3.1 |
| COc1cc(F)c([C@H]2[C@H](NC(=O)c3ccc(OC(F)F)cc3)C(=O)N(c3cccn(CCO)c3=O)[C@@H]2C)c(F)c1 | EC50 | 7.8 |

* * *

Experimental system: human FPR2 (Homo sapiens (Human), UniProt P25090)
Sequence (P25090 whole entry): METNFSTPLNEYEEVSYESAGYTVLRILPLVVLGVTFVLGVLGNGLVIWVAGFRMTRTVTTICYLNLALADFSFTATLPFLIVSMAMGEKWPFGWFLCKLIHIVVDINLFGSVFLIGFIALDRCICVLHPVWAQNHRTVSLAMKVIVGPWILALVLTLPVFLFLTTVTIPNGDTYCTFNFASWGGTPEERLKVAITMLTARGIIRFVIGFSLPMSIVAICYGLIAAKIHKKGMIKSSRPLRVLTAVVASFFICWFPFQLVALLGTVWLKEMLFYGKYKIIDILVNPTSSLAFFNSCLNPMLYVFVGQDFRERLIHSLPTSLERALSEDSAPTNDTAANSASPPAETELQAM
Experimental details: FPR2 cyclic adenosine monophosphate (cAMP) assay
Cond: CHO cells overexpressing human FPR2; forskolin 5 µM; inhibition of cAMP production; read-out: hFPR2 cAMP2 EC50
pEC50: −log10 of the molar value.
compounds and their reported pEC50

| Compound | Experimental system | pEC50 |
| --- | --- | --- |
| COc1cc(NCCO)nc(N2C[C@@H](c3c(F)cc(OC)cc3F)[C@H](NC(=O)c3ccc(Cl)cc3)C2=O)c1 | human FPR2 (Homo sapiens (Human), UniProt P25090) | 8.54 |
| COc1cc(F)c([C@@H]2CN(c3cccn(CC(O)CO)c3=O)C(=O)[C@H]2NC(=O)c2ccc(OC(F)F)cc2)c(F)c1 (stereo partly drawn) [Example 681] | human FPR2 (Homo sapiens (Human), UniProt P25090) | 8.00 |
| O=C(N[C@@H]1C(=O)N(c2cccn(CC(O)C(F)(F)F)c2=O)C[C@H]1c1ccc(Cl)cc1)c1ccc(OC(F)(F)F)cc1 (stereo partly drawn) [Example 608] | human FPR2 (Homo sapiens (Human), UniProt P25090) | 8.39 |
| COc1cc(F)c([C@H]2[C@H](NC(=O)c3ccc(OC(F)F)cc3)C(=O)N(c3cccc(C4CCCN(CCO)C4)n3)[C@H]2C)c(F)c1 (stereo partly drawn) [Example 516] | human FPR2 (Homo sapiens (Human), UniProt P25090) | 8.89 |
| COc1cc(F)c([C@@H]2CN(CC3CC3)C(=O)[C@H]2NC(=O)c2ccc(OC(F)(F)F)cc2)c(F)c1 | human FPR2 (Homo sapiens (Human), UniProt P25090) | 7.49 |
| COc1cc(F)c([C@@H]2CN(c3ncccc3CO)C(=O)[C@H]2NC(=O)c2ccc(OC(F)(F)F)cc2)c(F)c1 | human FPR2 (Homo sapiens (Human), UniProt P25090) | 7.57 |

* * *

compounds and their reported EC50
Experimental system: human FPR1 (Homo sapiens (Human))
Experimental details: FPR1 cyclic adenosine monophosphate (cAMP) assay
Cond: CHO cells overexpressing human FPR1; forskolin 10 µM; inhibition of cAMP production; read-out: hFPR1 cAMP EC50

| Compound | EC50 |
| --- | --- |
| COc1cc(F)c([C@@H]2CN(c3cn(C)nc3OC)C(=O)[C@H]2NC(=O)c2ccc(OC(F)(F)F)cc2)c(F)c1 [Example 631] | 160 nM |
| COc1cc(F)c([C@@H]2CN(c3c(C)ccn(CC#N)c3=O)C(=O)[C@H]2NC(=O)c2ccc(OC(F)(F)F)cc2)c(F)c1 [Example 595] | 13 nM |
| COCC(CN)n1cccc(N2C[C@@H](c3c(F)cc(OC)cc3F)[C@H](NC(=O)c3ccc(OC(F)F)cc3)C2=O)c1=O (stereo partly drawn) [Example 44] | 10 nM |

* * *

compounds and their reported EC50
Experimental system: human FPR1 (Homo sapiens (Human), UniProt P21462)
Sequence (P21462 whole entry): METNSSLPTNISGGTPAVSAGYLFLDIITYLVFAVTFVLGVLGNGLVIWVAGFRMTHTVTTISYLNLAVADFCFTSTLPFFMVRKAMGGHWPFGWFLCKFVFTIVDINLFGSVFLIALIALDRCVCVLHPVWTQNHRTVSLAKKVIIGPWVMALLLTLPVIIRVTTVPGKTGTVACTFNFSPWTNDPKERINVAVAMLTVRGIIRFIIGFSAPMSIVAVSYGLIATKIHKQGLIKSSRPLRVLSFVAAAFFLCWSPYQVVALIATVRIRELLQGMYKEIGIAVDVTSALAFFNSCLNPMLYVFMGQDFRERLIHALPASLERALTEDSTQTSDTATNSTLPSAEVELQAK
Experimental details: FPR1 cyclic adenosine monophosphate (cAMP) assay
Cond: CHO cells overexpressing human FPR1; forskolin 10 µM; inhibition of cAMP production; read-out: hFPR1 cAMP EC50

| Compound | Unit of measure | EC50 |
| --- | --- | --- |
| COc1ccc([C@@H]2CN(c3cccn(CCO)c3=O)C(=O)[C@H]2NC(=O)c2ccc(OC(F)(F)F)cc2)cc1 [Example 64] | nM | 7.2 |
| COc1ccc([C@@H]2CN(c3cccn(CC(C)O)c3=O)C(=O)[C@H]2NC(=O)c2ccc(OC(F)F)cc2)cc1 (stereo partly drawn) [Example 434] | nM | 10 |
| COc1cc(F)c([C@@H]2CN(c3c(C)ccn(C4CCN(C)C4)c3=O)C(=O)[C@H]2NC(=O)c2ccc(OC(F)F)cc2)c(F)c1 (stereo partly drawn) [Example 508] | nM | 110 |

* * *

compounds and their reported EC50
Experimental system: UniProt P25090
Experimental details: FPR2 cyclic adenosine monophosphate (cAMP) assay
Cond: CHO cells overexpressing human FPR2; forskolin 5 µM; inhibition of cAMP production; read-out: hFPR2 cAMP2 EC50

| Compound | Unit of measure | Modifier | EC50 |
| --- | --- | --- | --- |
| COc1cc(F)c([C@@H]2CN(c3cncn(C4CCNC4)c3=O)C(=O)[C@H]2NC(=O)c2ccc(Cl)cc2)c(F)c1 (stereo partly shown) [Example 714] | nM | = | 6.4 |
| COc1cc(F)c([C@@H]2CN(c3c(C)ccn(CC#N)c3=O)C(=O)[C@H]2NC(=O)c2ccc(OC(F)(F)F)cc2)c(F)c1 [Example 595] | nM | = | 2.4 |
| COCCn1cncc(N2C[C@@H](c3c(F)cc(OC)cc3F)[C@H](NC(=O)c3ccc(OC(F)F)cc3)C2=O)c1=O | nM | = | 3.7 |
| COc1cc(C2CCN(CCF)CC2)nc(N2C[C@@H](c3c(F)cc(OC)cc3F)[C@H](NC(=O)c3ccc(OC(F)F)cc3)C2=O)c1 | nM | = | 8.7 |
| COCCn1ccc(C)c(N2C[C@@H](c3ccc(OC)cc3)[C@H](NC(=O)c3ccc(Cl)cc3)C2=O)c1=O | nM | = | 2.6 |
| COc1cc(F)c([C@@H]2CN(c3cc4c(n(CCO)c3=O)CCCC4)C(=O)[C@H]2NC(=O)c2ccc(OC(F)F)cc2)c(F)c1 | nM | < | 5 |
| COCC(C(=O)N(C)C)n1ccc(C)c(N2C[C@@H](c3c(F)cc(OC)cc3F)[C@H](NC(=O)c3ccc(OC(F)F)cc3)C2=O)c1=O (stereo partly shown) | nM | = | 7.3 |
| COc1cc(F)c([C@@H]2CN(c3c(C)ccn(C4CCOC4)c3=O)C(=O)[C@H]2NC(=O)c2ccc(Cl)cc2)c(F)c1 (stereo partly shown) | nM | = | 1 |
| COc1ccc([C@@H]2CN(c3ccnn(CC(F)F)c3=O)C(=O)[C@H]2NC(=O)c2ccc(OC(F)F)cc2)cc1 | nM | = | 11 |
| COc1cc(F)c([C@@H]2CN(c3cccn(CC(C)OC)c3=O)C(=O)[C@H]2NC(=O)c2ccc(OC(F)(F)F)cc2)c(F)c1 (stereo partly shown) [Example 138] | nM | = | 3.5 |
| COc1cc(F)c([C@@H]2CN(c3nc(N(C)C(C)=O)ccc3F)C(=O)[C@H]2NC(=O)c2ccc(OC(F)(F)F)cc2)c(F)c1 | nM | = | 3 |
| COCC(CO)n1ccc(C)c(N2C[C@@H](c3c(F)cc(OC)cc3F)[C@H](NC(=O)c3ccc(OC(F)(F)F)cc3)C2=O)c1=O (stereo partly shown) [Example 429] | nM | = | 1.5 |
| COc1ccc([C@@H]2CN(c3cccn(CC(C)O)c3=O)C(=O)[C@H]2NC(=O)c2ccc(OC(F)(F)F)cc2)cc1 (stereo partly shown) | nM | = | 1.3 |
